# Test system: 621-103 (TSC2-rescued)
# assay: relative viability vs DMSO; higher = less cytotoxic
# details: 0.01 µM; serum: 10% FBS; 72 h
Counter-ions that a name gives are not always drawn.
observable: relative viability (%)
Numbers only, in %.

Worked cases, relative viability given:
molecule="CC(C)(Cc1ccc2ccccc2c1)NC[C@@H](O)COc1cccc(Cl)c1C#N [NPS-2143]" unit_name=% value_measured=107
molecule=COc1cccc(Nc2c(C(N)=O)cnc3c(C)cc(S(=O)(=O)c4cccc(C(=O)N(C)C)c4)cc23)c1 unit_name=% value_measured=102
molecule="c1ccc2c(CC3=NCCN3)cccc2c1 [Naphazoline HCl]" unit_name=% value_measured=103
molecule="COc1cc(Nc2c(C#N)cnc3cc(OCCCN4CCN(C)CC4)c(OC)cc23)c(Cl)cc1Cl [Bosutinib (SKI-606)]" unit_name=% value_measured=94.5
molecule="O=c1[nH]c2ccccc2n1CCCN1CCC(n2c(=O)[nH]c3cc(Cl)ccc32)CC1 [Domperidone (Motilium)]" unit_name=% value_measured=103

Quick batch: relative viability for everything below.
1. CN1CCN(C2=Nc3cc(Cl)ccc3Nc3ccccc32)CC1 [Clozapine]
2. Cc1cc(OCCCS(C)(=O)=O)cc(C)c1-c1cccc(COc2ccc3c(c2)OC[C@H]3CC(=O)O)c1 [TAK-875]
3. Cc1cc(Nc2cc(CN3CCOCC3)c3nc(C)c(Cc4ccc(Cl)cc4F)n3n2)n[nH]1
4. CC[C@H](c1ccc(O)cc1)[C@@H](CC)c1ccc(O)cc1 [Hexestrol (Bibenzyl)]

[109, 104, 90, 90.4]

Quick batch: relative viability for everything below.
1. CC(C)CC(=O)Nc1n[nH]c2c1CN(C(=O)C1CCN(C)CC1)C2(C)C
2. CC(C)Cc1ccc(C(C)C(=O)O)cc1 (stereo not drawn) [Ibuprofen]
3. CCN[C@H]1C[C@H](C)S(=O)(=O)c2sc(S(N)(=O)=O)cc21 [Dorzolamide HCl]
4. O=c1cc(N2CCOCC2)oc2c(-c3cccc4c3sc3ccccc34)cccc12 [NU7441]
5. C[C@]12CC[C@H](O)CC1=CC[C@@H]1[C@@H]2CC[C@]2(C)C(=O)CC[C@@H]12 [DHEA]
6. Cc1ncc(-c2ccnc(Nc3ccc(S(C)(=O)=O)cc3)n2)n1C(C)C [AZD5438]

102
101
103
111
80.2
98.7

Quick batch: relative viability for everything below.
1. O=C1N=C(O)NC1(c1ccccc1)c1ccccc1 [Phenytoin sodium]
2. O=C(NOCC1CC1)c1ccc(F)c(F)c1Nc1ccc(I)cc1Cl
3. Fc1cc(-c2cccc3ncc(-c4cnn(C5CCNCC5)c4)nc23)cc(F)c1CN1CCOCC1 [NVP-BSK805 dihydrochloride]

1: 100; 2: 98.9; 3: 111

====

I'd appreciate it if you could supply relative viability values for the items below.
# Test system: 621-102 (TSC2-deficient)
# assay: relative viability vs DMSO (fraction); higher = less cytotoxic
# details: 0.064 nM; serum: 0.1% FBS; 72 h
Structures can show the parent of a compound that is named as a salt.
Give bare numbers.

Worked cases, relative viability given:
compound=Nc1nc(Cl)nc2c1ncn2[C@@H]1O[C@H](CO)[C@@H](O)[C@@H]1F observable="relative viability" value_measured=0.982
compound=CNC(=O)c1cc(Oc2ccc(NC(=O)Nc3cc(C(C)(C)C)nn3-c3ccc4ncccc4c3)c(F)c2)ccn1 observable="relative viability" value_measured=1.68
compound="CC[C@@]1(O)C(=O)OCc2c1cc1n(c2=O)Cc2cc3c(CN(C)C)c(O)ccc3nc2-1 [Topotecan Hydrochloride]" observable="relative viability" value_measured=0.984
compound=O=C(Cc1ccc(-c2ccc(OCCN3CCOCC3)cc2)cn1)NCc1ccccc1 observable="relative viability" value_measured=0.965
compound=CC(C)C[C@H](NC(=O)[C@H](Cc1ccccc1)NC(=O)c1cnccn1)B(O)O observable="relative viability" value_measured=1.03
compound=CCc1cccc(CC)c1NC(=O)N1Cc2[nH]nc(NC(=O)c3ccc(N4CCN(C)CC4)cc3)c2C1 observable="relative viability" value_measured=0.947
compound=CC(C)C[C@H](NC(=O)CNC(=O)c1cc(Cl)ccc1Cl)B1OC(=O)C(CC(=O)O)(CC(=O)O)O1 observable="relative viability" value_measured=1.13

Find the measured relative viability: item `Cc1ccc(NC(=O)c2ccc(CN3CCN(C)CC3)cc2)cc1Nc1nc(-c2cccnc2)cs1` , target or system 621-102 (TSC2-deficient).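 Note: renal angiomyolipoma cell lines screened in 384-well plates, viability normalized per plate to DMSO-treated cells, each plate carrying 50 nM rapamycin and 1 µM staurosporine controls.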
0.9

====

# Test system: 621-103 (TSC2-rescued)
# assay: relative viability vs DMSO; higher = less cytotoxic
# details: 0.001 µM; serum: 10% FBS; 72 h
Structures can show the parent of a compound that is named as a salt.
observable: relative viability (%)
Numbers only, in %.

Worked cases, relative viability given:
molecule="CCc1c2c(nc3ccc(OC(=O)N4CCC(N5CCCCC5)CC4)cc13)-c1cc3c(c(=O)n1C2)COC(=O)[C@]3(O)CC [Irinotecan HCl Trihydrate]" observable="relative viability" unit_name=% value_measured=107
molecule=CC[C@@H]1C(=O)N(C)c2cnc(Nc3ccc(C(=O)NC4CCN(C)CC4)cc3OC)nc2N1C1CCCC1 observable="relative viability" unit_name=% value_measured=66.7
molecule="CN1[C@@H]2CC[C@H]1C[C@@H](OC(=O)c1c[nH]c3ccccc13)C2 [Tropisetron HCl]" observable="relative viability" unit_name=% value_measured=96.7
molecule=O=C1c2c(O)ccc(O)c2C(=O)c2c(NCCNCCO)ccc(NCCNCCO)c21 observable="relative viability" unit_name=% value_measured=87.3
molecule=COCC[n+]1c2c(n(Cc3cnccn3)c1C)C(=O)c1ccccc1C2=O observable="relative viability" unit_name=% value_measured=97.1
molecule=CN(C)CC/C=C1/c2ccccc2Sc2ccc(Cl)cc21 observable="relative viability" unit_name=% value_measured=106
molecule=CCN1CCN(Cc2ccc(-c3cc4c(N[C@H](C)c5ccccc5)ncnc4[nH]3)cc2)CC1 observable="relative viability" unit_name=% value_measured=107
molecule="CN(CCOc1ccc(CC2SC(=O)NC2=O)cc1)c1ccccn1 (configuration not stated)" observable="relative viability" unit_name=% value_measured=105

Quick batch: relative viability for everything below.
1. Cc1cnc(NC(=O)Nc2cc(Br)c(C)cc2OC[C@@H]2CNCCO2)cn1
2. CCCc1nc2c(C)cc(-c3nc4ccccc4n3C)cc2n1Cc1ccc(-c2ccccc2C(=O)O)cc1
3. Cc1[nH]c(/C=C2\C(=O)Nc3ccc(S(=O)(=O)N(C)c4cccc(Cl)c4)cc32)c(C)c1C(=O)N1CCN(C)CC1
4. Clc1ccc(C2(c3ccc(-c4cn[nH]c4)cc3)CCNCC2)cc1

1: 104; 2: 97.8; 3: 97.9; 4: 90.1

Quick batch: relative viability for everything below.
1. O=C(/C=C/c1ccc(CN(CCO)CCc2c[nH]c3ccccc23)cc1)NO
2. Nc1ccn([C@@H]2O[C@H](CO)[C@@H](O)[C@@H]2O)c(=O)n1

[94.1, 106]

Quick batch: relative viability for everything below.
1. CCc1c2c(nc3ccc(OC(=O)N4CCC(N5CCCCC5)CC4)cc13)-c1cc3c(c(=O)n1C2)COC(=O)[C@]3(O)CC [Irinotecan]
2. O=C(c1ccc(/C=C/c2n[nH]c3ccccc23)cc1)N1CCNCC1
3. CO[C@H]1/C=C\C=C(/C)C(=O)NC2=CC(=O)C(NCCN(C)C)=C(C[C@@H](C)C[C@H](OC)[C@H](O)[C@@H](C)/C=C(\C)[C@@H]1OC(N)=O)C2=O

1: 98.6; 2: 101; 3: 41

====

I'd appreciate it if you could supply relative viability values for the items below.
# System: 621-103 (TSC2-rescued);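 note: immortalized renal angiomyolipoma cells stably carrying empty vector or TSC2, dosed in 384-well plates in DMEM, viability normalized to vehicle-treated wells within each plate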
# assay: relative viability vs DMSO; higher = less cytotoxic
# details: 0.001 µM; serum: 10% FBS; 72 h
Structures can show the parent of a compound that is named as a salt.
Answers are plain numbers, in %.

Worked cases, relative viability given:
compound=Cc1[nH]c2ccccc2c1CCNCc1ccc(/C=C/C(=O)NO)cc1 value_measured=85.6
compound="N=C(N)NC(=N)NCCc1ccccc1 [Phenformin HCl]" value_measured=102
compound="Nc1ncnc2c1c(-c1cccc(OCc3ccccc3)c1)cn2C1CC(CN2CCCC2)C1 (stereo not given)" value_measured=96
compound="CN1C2CCCC1CC(NC(=O)c1nn(C)c3ccccc13)C2 (stereo not given) [Granisetron HCl]" value_measured=102
compound=CC[C@H](c1ccc(O)cc1)[C@@H](CC)c1ccc(O)cc1 value_measured=89.3
compound=COc1ccc(-c2cc3c(C)nc(N)nc3n([C@H]3CC[C@H](OCCO)CC3)c2=O)cn1 value_measured=98.4
compound="CN(C)CCOC(c1ccccc1)c1ccccc1 [Diphenhydramine HCl]" value_measured=82.9
compound=Nc1nc(Cl)nc2c1ncn2[C@H]1C[C@H](O)[C@@H](CO)O1 value_measured=101

Quick batch: relative viability for everything below.
1. CC(C)C[C@@H](C=O)NC(=O)[C@H](CC(C)C)NC(=O)[C@H](CC(C)C)NC(=O)OCc1ccccc1
2. COc1cc2c(Oc3ccc(NC(=O)C4(C(=O)Nc5ccc(F)cc5)CC4)cc3F)ccnc2cc1OCCCN1CCOCC1
3. Cn1cnc2c(F)c(Nc3ccc(Br)cc3Cl)c(C(=O)NOCCO)cc21 [AZD6244 (Selumetinib)]
4. CC(=O)SCC(Cc1ccccc1)C(=O)NCC(=O)OCc1ccccc1 (stereo not given)
5. S=C(NCc1ccc2c(c1)OCO2)N1CCN(c2ncnc3c2oc2ccccc23)CC1
6. CCC[C@H](NC(=O)/C(C#N)=C/c1cccc(Br)n1)c1ccccc1
7. CN(C)C(=O)Oc1cccc([N+](C)(C)C)c1 [Neostigmine bromide (Prostigmin)]

[93.4, 97.1, 100, 95.5, 104, 111, 93.3]

Quick batch: relative viability for everything below.
1. CNC(C)C1CCC(N)C(OC2C(N)CC(N)C(OC3OCC(C)(O)C(NC)C3O)C2O)O1 (stereo not given) [Gentamycin sulfate (Gentacycol)]
2. CN1CC2c3ccccc3Oc3ccc(Cl)cc3C2C1 (stereo not given) [Asenapine maleate]

1. 89.3
2. 113

Reference for the values: the supplement of paper PMC8960247
